- Method: Verinurad plasma pharmacokinetics, Phase I single and multiple dose study
- Format: in vivo, human
- Cond: male, human, plasma, oral, 15 mg, t1/2, Japanese subjects; 15 mg once daily multiple doses, fed, day 12; geometric mean (95% CI)
Measurement name: half-life (h)
Provide only the numeric value, understood in h.

Consider CC(C)(Sc1ccncc1-c1ccc(C#N)c2ccccc12)C(=O)O . Its measured half-life is 9.79

* * *

- Method: Verinurad plasma pharmacokinetics, Phase I single and multiple dose study
- Assay type: in vivo, human
- Cond: male, human, plasma, oral, 10 mg, Cmax, Japanese subjects; 10 mg once daily multiple doses, fed, day 12; geometric mean (95% CI)
Measurement name: Cmax (µg/mL)
Answer format: numeric, µg/mL implied, no suffix.

The compound listed as CC(C)(Sc1ccncc1-c1ccc(C#N)c2ccccc12)C(=O)O shows Cmax equal to 0.0249

* * *

- Method: Verinurad plasma pharmacokinetics, Phase I single and multiple dose study
- Assay type: in vivo, human
- Cond: male, human, plasma, oral, 15 mg, AUC0–24, Japanese subjects; 15 mg once daily multiple doses, fed, day 12; geometric mean (95% CI)
Measurement name: AUC(0-t) (ng·h/mL)
Entry rule: numbers only, all in ng·h/mL.

// AUC(0-t) lookup, compound = CC(C)(Sc1ccncc1-c1ccc(C#N)c2ccccc12)C(=O)O , result: 286

* * *

- Method: Verinurad plasma pharmacokinetics, Phase I single and multiple dose study
- Type: in vivo, human
- Cond: male, human, plasma, oral, 10 mg, AUC0–24, Japanese subjects; 10 mg once daily multiple doses, fed, day 12; geometric mean (95% CI)
Measurement name: AUC(0-t) (ng·h/mL)
Write the value in ng·h/mL as a bare number.

Sample CC(C)(Sc1ccncc1-c1ccc(C#N)c2ccccc12)C(=O)O ; AUC(0-t) observed: 173

* * *

- Method: Verinurad plasma pharmacokinetics, Phase I single and multiple dose study
- Format: in vivo, human
- Cond: male, human, plasma, oral, 5 mg, AUC0–24, Japanese subjects; 5 mg once daily multiple doses, fed, day 12; geometric mean (95% CI)
Measurement name: AUC(0-t) (ng·h/mL)
Provide only the numeric value, understood in ng·h/mL.

Memo: CC(C)(Sc1ccncc1-c1ccc(C#N)c2ccccc12)C(=O)O , reported AUC(0-t): 80.9

* * *

- Method: Verinurad plasma pharmacokinetics, Phase I single and multiple dose study
- Format: in vivo, human
- Cond: male, human, plasma, oral, 15 mg, Cmax, Japanese subjects; 15 mg once daily multiple doses, fed, day 12; geometric mean (95% CI)
Measurement name: Cmax (ng/mL)
All answers are understood in ng/mL, so give the number only.

Record CC(C)(Sc1ccncc1-c1ccc(C#N)c2ccccc12)C(=O)O [verinurad] . Reported Cmax: 41.5
